# protocolDetails: AUC in Sprague-Dawley rat at 5 mg/kg, po
# Assay type: ADME, organism-based
# Design: dose 5 mg/kg, route oral
# setupConditions: plasma
endpoint: AUC (µM·h)

Study these solved cases before continuing.
Ask: Endpoint output: AUC of CN(C)CC[C@H](CSc1ccccc1)Nc1ccc(S(=O)(=O)NC(=O)c2ccc(N3CCN(Cc4ccccc4-c4ccc(Cl)cc4)CC3)cc2)cc1C(F)(F)F . Value?
Reply: 4.41

Ask: Recorded AUC for CN(C)CC[C@H](CSc1ccccc1)Nc1ccc(S(=O)(=O)NC(=O)c2ccc(N3CCN(Cc4ccccc4-c4ccc(Cl)cc4)CC3)cc2)cc1C#N , please?
Reply: 2.19

Ask: Returns the measured AUC for the input compound. Input: CN(C)CC[C@H](CSc1ccccc1)Nc1ccc(S(=O)(=O)NC(=O)c2ccc(N3CCN(Cc4ccccc4-c4ccc(Cl)cc4)CC3)cc2)cc1C(=O)C(F)(F)F
Reply: 1.25

Ask: Consider the compound CN(C)CC[C@H](CSc1ccccc1)Nc1ccc(S(=O)(=O)NC(=O)c2ccc(N3CCN(CC4=C(c5ccc(Cl)cc5)CCCC4)CC3)cc2)cc1[N+](=O)[O-] and give its measured AUC.
Reply: 0.65

[1] O=C(NS(=O)(=O)c1ccc(N[C@H](CCN2CCOCC2)CSc2ccccc2)c(S(=O)(=O)C(F)(F)F)c1)c1ccc(N2CCN(CC3=C(c4ccc(Cl)cc4)CCCC3)CC2)cc1
[2] O=C(NS(=O)(=O)c1ccc(N[C@H](CCN2CCOCC2)CSc2ccccc2)c([N+](=O)[O-])c1)c1ccc(N2CCN(Cc3ccccc3-c3ccc(Cl)cc3)CC2)cc1
Ask: Given 1 and given 2 , which shows the smaller recorded AUC? # respond with the chosen item's label
Reply: 2
(2: 1.16 µM·h, 1: 3.87 µM·h)

###

# protocolDetails: AUC in cynomolgus monkey at 2.5 mg/kg, po
# Assay type: ADME, organism-based, Macaca fascicularis
# Parameters: dose 2.5 mg/kg, route oral
# setupConditions: plasma
endpoint: AUC (µM·h)

[1] CC1(C)CCC(c2ccc(Cl)cc2)=C(CN2CCN(c3ccc(C(=O)NS(=O)(=O)c4ccc(N[C@H](CCN5CCOCC5)CSc5ccccc5)c(S(=O)(=O)C(F)(F)F)c4)cc3)CC2)C1 [NAVITOCLAX]
[2] O=C(NS(=O)(=O)c1ccc(N[C@H](CCN2CCOCC2)CSc2ccccc2)c(S(=O)(=O)C(F)(F)F)c1)c1ccc(N2CCN(CC3=C(c4ccc(Cl)cc4)CCCC3)CC2)cc1
Ask: Identify the entry with the larger AUC. Options: 1 and 2 Use the label to indicate which entry you chose.
Reply: 1

###

# protocolDetails: Oral bioavailability in Beagle dog
# Type: ADME, organism-based, Canis lupus familiaris
# setupConditions: in vivo
endpoint: bioavailability (%)
Write the number in % without appending the unit.

Ask: What value of bioavailability has been recorded for this entry: CC1(C)CCC(c2ccc(Cl)cc2)=C(CN2CCN(c3ccc(C(=O)NS(=O)(=O)c4ccc(N[C@H](CCN5CCOCC5)CSc5ccccc5)c(S(=O)(=O)C(F)(F)F)c4)cc3)CC2)C1 [NAVITOCLAX]
Reply: 20

###

# protocolDetails: Oral elimination half life in Sprague-Dawley rat
# Format: ADME, organism-based
# setupConditions: in vivo, read-out: beta t1/2 (converted)
endpoint: half-life (h)
Numeric only. Scale: h

Ask: Which half-life is listed for CC1(C)CCC(c2ccc(Cl)cc2)=C(CN2CCN(c3ccc(C(=O)NS(=O)(=O)c4ccc(N[C@H](CCN5CCOCC5)CSc5ccccc5)c(S(=O)(=O)C(F)(F)F)c4)cc3)CC2)C1 ?
Reply: 4

###

# protocolDetails: Oral elimination half life in Beagle dog
# Format: ADME, organism-based, Canis lupus familiaris
# setupConditions: in vivo, read-out: beta t1/2 (converted)
endpoint: half-life (h)
Entry rule: numbers only, all in h.

Ask: I would be grateful if you could share the reported half-life for CC1(C)CCC(c2ccc(Cl)cc2)=C(CN2CCN(c3ccc(C(=O)NS(=O)(=O)c4ccc(N[C@H](CCN5CCOCC5)CSc5ccccc5)c(S(=O)(=O)C(F)(F)F)c4)cc3)CC2)C1 [NAVITOCLAX] .
Reply: 4
